Listed compounds paired with reported pEC50
testTarget: 5-HT2A receptor (Homo sapiens)
Construct: host or cells: HEK293
protocolNotes: FLIPR Ca2+ flux functional assay, 5-HT2A
Type: cell-based
To interpret pEC50, take it as minus log10 of a concentration measured in moles per litre.

itemSmiles: CN(C)CCc1c[nH]c2cc3occc3cc12
pEC50: 8.03
//
itemSmiles: CN(C)CCc1c[nH]c2ccc3oc(=O)[nH]c3c12
pEC50: 7.31
//
itemSmiles: CCN(CC)CCc1c[nH]c2ccc3ocnc3c12
pEC50: 7.84
//
itemSmiles: CCN(CC)CCc1c[nH]c2ccc3oc(C)nc3c12
pEC50: 7.69
//
itemSmiles: CCN(C)CCc1c[nH]c2ccc3ocnc3c12
pEC50: 7.92
//
itemSmiles: Cc1nc2c(ccc3[nH]cc(CCN(C)C)c32)o1
pEC50: 7.98

Now take the following compound into account.
Input: So what's the measured pEC50 for this one? CCN(C)CCc1c[nH]c2ccc3oc(C)nc3c12
Output: 7.69

----------
Recorded measurements of Emax, one per entry
testTarget: 5-HT2C receptor (Homo sapiens, UniProt P28335)
Construct: host or cells: HEK293
Sequence (P28335 33-458): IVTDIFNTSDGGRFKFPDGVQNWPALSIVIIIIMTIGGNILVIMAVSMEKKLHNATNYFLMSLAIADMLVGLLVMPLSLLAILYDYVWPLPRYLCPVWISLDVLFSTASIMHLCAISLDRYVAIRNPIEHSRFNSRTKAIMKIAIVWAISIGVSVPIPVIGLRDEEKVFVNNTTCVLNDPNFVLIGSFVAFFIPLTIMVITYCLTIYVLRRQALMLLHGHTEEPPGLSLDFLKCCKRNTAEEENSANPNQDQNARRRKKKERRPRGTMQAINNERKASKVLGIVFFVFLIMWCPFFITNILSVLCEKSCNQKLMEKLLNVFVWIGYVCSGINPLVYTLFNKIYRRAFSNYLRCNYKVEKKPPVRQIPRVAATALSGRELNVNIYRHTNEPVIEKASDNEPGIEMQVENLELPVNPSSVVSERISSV
protocolNotes: cell-based
studyConditions: agonist activity, Ca2+ flux, HEK293 cells
// return numeric value only (unit: %, not printed)

itemSmiles: CCN(C)CCc1c[nH]c2c(F)cc(OC)cc12
Emax (%): 81.7
--
itemSmiles: CC(C)N(C)CCc1c[nH]c2cc(F)cc(F)c12
Emax (%): 30.1
--
itemSmiles: Cc1ccc2[nH]cc(CCN(C)C(C)C)c2c1O
Emax (%): 50.3
--
itemSmiles: CCN(C)CCc1c[nH]c2ccc(F)c(OC)c12
Emax (%): 75.3
--
itemSmiles: CC(C)N(C)CCc1c[nH]c2ccc3ocnc3c12
Emax (%): 58

Please find the next compound below.
Input: # value lookup — system 5-HT2C receptor (Homo sapiens, UniProt P28335), readout Emax, item CCN(CC)CCc1c[nH]c2ccc(F)c(F)c12
Output: 72.3

----------
Reported pEC50 values follow for various compounds
testTarget: 5-HT2A receptor (Homo sapiens, UniProt P28223)
Construct: host or cells: HEK293
Sequence (P28223 whole entry): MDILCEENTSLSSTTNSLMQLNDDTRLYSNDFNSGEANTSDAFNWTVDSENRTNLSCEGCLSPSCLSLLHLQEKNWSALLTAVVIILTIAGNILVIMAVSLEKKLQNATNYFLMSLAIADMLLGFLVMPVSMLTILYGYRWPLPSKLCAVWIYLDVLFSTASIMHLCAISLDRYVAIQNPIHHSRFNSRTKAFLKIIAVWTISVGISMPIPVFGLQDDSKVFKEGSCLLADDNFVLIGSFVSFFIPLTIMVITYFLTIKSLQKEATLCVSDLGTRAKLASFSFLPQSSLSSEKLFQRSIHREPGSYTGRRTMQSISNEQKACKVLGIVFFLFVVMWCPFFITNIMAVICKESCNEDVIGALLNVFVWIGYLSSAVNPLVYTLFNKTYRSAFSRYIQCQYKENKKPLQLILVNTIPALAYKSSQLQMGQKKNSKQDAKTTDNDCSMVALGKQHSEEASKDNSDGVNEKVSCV
protocolNotes: FLIPR Ca2+ flux functional assay, 5-HT2A
Assay type: cell-based
studyConditions: agonist activity, Ca2+ flux, HEK293 cells; read-out: 5-HT2A EC50
Interpret pEC50 as the negative base-10 log of the concentration measured in mol/L.

Here are 2 compounds together with their reported answers.
compound: COc1ccc(F)c2[nH]cc(CCN(C)C)c12 [Example P-101]
experimentalResult: 8.42
//
compound: CCCN(C)CCc1c[nH]c2c(C)cc(OC)cc12 [Example P-52]
experimentalResult: 6.79

Input: I am curious: what pEC50 value has been reported for CCN(C)CCc1c[nH]c2cc(F)cc(F)c12 [Example P-148] ?
Output: 7.29

Input: Next record, please: COc1c(F)ccc2[nH]cc(CCN(C)C)c12 [Example P-91]
Output: 8.63

----------
testTarget: 5-HT2A receptor (Homo sapiens)
Construct: host or cells: HEK293
protocolNotes: FLIPR Ca2+ flux functional assay, 5-HT2A
Type: cell-based
studyConditions: agonist activity, Ca2+ flux, HEK293 cells; read-out: 5-HT2A EC50
experimentalReadout: pEC50
Please note pEC50 is a logarithmic value: minus log10 of concentration in mol/L. Answer with that number alone.

itemSmiles: COc1cc(C)c2[nH]cc(CCN(C)C)c2c1
pEC50: 7.19

itemSmiles: CN(C)CCc1c[nH]c2ccc3c(c12)OCC3
pEC50: 8.01

itemSmiles: COc1cc(C)c2[nH]cc(CCN(C(C)C)C(C)C)c2c1
pEC50: 6.32

itemSmiles: COc1cc(F)c2[nH]cc(CCN(C(C)C)C(C)C)c2c1
pEC50: 7.76

itemSmiles: COc1ccc(F)c2[nH]cc(CCN(C)C(C)C)c12
pEC50: 7.46

Input: pEC50 for COc1cc(F)cc2[nH]cc(CCN(C)C)c12 ?
Output: 7.89

Input: And the next one, CCCN(CC)CCc1c[nH]c2cc(C)c(OC)cc12 ?
Output: 7.48

Input: Further, for CC(C)N(C)CCc1c[nH]c2cc(F)cc(F)c12 ?
Output: 7.28

Input: Please give the result for COc1ccc(F)c2[nH]cc(CCN(C(C)C)C(C)C)c12 too.
Output: 6.83

Input: Similarly, CCN(CCc1c[nH]c2ccc(C)c(OC)c12)C(C)C ?
Output: 6.50

----------
Quick reference: concentration at 0.083 h of the listed items.
protocolNotes: In vivo pharmacokinetics, plasma and brain exposure after IP dosing
Design: species or system male C57BL/6 mice
studyConditions: male, C57BL/6, mouse, plasma, ip, 10 mg/kg, 0.083 h, individual mouse, read-out: Plasma Concentration, Individual
Output spec: scalar in µM, unitless text.

Answered cases to consult:
itemSmiles: CCN(C)CCc1c[nH]c2cc(C)c(OC)cc12
resultUnits: µM
concentration at 0.083 h: 2.65
//
itemSmiles: CCN(C)CCc1c[nH]c2ccc(OC)c(C)c12
resultUnits: µM
concentration at 0.083 h: 3.36

Now consider the entry below.
Input: Any idea what concentration at 0.083 h was measured for CCN(C)CCc1c[nH]c2c(C)cc(OC)cc12 ?
Output: 6.37

----------
testTarget: 5-HT2C receptor (Homo sapiens, UniProt P28335)
Construct: host or cells: HEK293
protocolNotes: cell-based
studyConditions: agonist activity, Ca2+ flux, HEK293 cells; read-out: 5-HT2C EC50
pEC50: −log10 of the molar value.
Please note: Satisfied applies when pEC50 is 6 or greater, and Not satisfied applies otherwise.

Reference set, count: 5
compound: COc1c(C)ccc2[nH]cc(CCN(C(C)C)C(C)C)c12 [Example P-63]
testTarget: 5-HT2C receptor (Homo sapiens, UniProt P28335)
assignedCategory: Not satisfied
//
compound: CN(C)CCc1c[nH]c2c(F)cc(F)cc12 [Example P-156]
testTarget: 5-HT2C receptor (Homo sapiens, UniProt P28335)
assignedCategory: Satisfied
//
compound: Cc1ccc(O)c2c(CCN(C(C)C)C(C)C)c[nH]c12 [Example P-90]
testTarget: 5-HT2C receptor (Homo sapiens, UniProt P28335)
assignedCategory: Not satisfied
//
compound: CCN(C)CCc1c[nH]c2cc(F)c(F)cc12 [Example P-154]
testTarget: 5-HT2C receptor (Homo sapiens, UniProt P28335)
assignedCategory: Satisfied
//
compound: COc1c(F)ccc2[nH]cc(CCN(C(C)C)C(C)C)c12 [Example P-95]
testTarget: 5-HT2C receptor (Homo sapiens, UniProt P28335)
assignedCategory: Satisfied

Input: Hello, I need to know if COc1c(C)ccc2[nH]cc(CCN(C)C)c12 [Example P-9] has measured pEC50 not below 6. Thanks!
Output: Satisfied

Input: Entry to check: Cc1ccc(O)c2c(CCN(C)C(C)C)c[nH]c12 [Example P-87]
Output: Not satisfied

Input: Thanks! And COc1ccc(F)c2[nH]cc(CCN(C)C)c12 [Example P-101] ?
Output: Satisfied

Input: Try this compound too: CN(C)CCc1c[nH]c2cc3c(cc12)OCC3 [Example P-1]
Output: Satisfied

Input: Again, but for CCN(CC)CCc1c[nH]c2c(C)cc(OC)cc12 [Example P-54]
Output: Not satisfied

----------
protocolNotes: In vivo pharmacokinetics, plasma and brain exposure after IP dosing
Parameters: species or system male C57BL/6 mice
studyConditions: male, C57BL/6, mouse, brain/plasma, ip, 10 mg/kg, 4 h, n = 3, read-out: B:P Ratio, Mean ± SD
experimentalReadout: Kp at 4 h
Lab note: write the figure by itself, no unit.

// below: answered compounds
itemSmiles: CCN(C)CCc1c[nH]c2cc(C)c(OC)cc12
Kp at 4 h: 13
//
itemSmiles: CCN(C)CCc1c[nH]c2c(C)cc(OC)cc12
Kp at 4 h: 8.7

Here is the next item to consider.
Input: Fill in: Kp at 4 h of CCN(C)CCc1c[nH]c2ccc(OC)c(C)c12 is ___
Output: 14

----------
testTarget: 5-HT2A receptor (Homo sapiens)
Construct: host or cells: HEK293
protocolNotes: FLIPR Ca2+ flux functional assay, 5-HT2A
Format: cell-based
studyConditions: agonist activity, Ca2+ flux, HEK293 cells
Known Emax of a selection of compounds
Your answer should be a plain number; it is taken to be in %.

itemSmiles: CN(C)CCc1c[nH]c2ccc3oc(=O)[nH]c3c12
testTarget: 5-HT2A receptor (Homo sapiens)
experimentalReadout: Emax
resultUnits: %
experimentalResult: 75.5
//
itemSmiles: CCN(C)CCc1c[nH]c2ccc(F)c(OC)c12
testTarget: 5-HT2A receptor (Homo sapiens)
experimentalReadout: Emax
resultUnits: %
experimentalResult: 78
//
itemSmiles: CCCN(CC)CCc1c[nH]c2c(C)cc(OC)cc12
testTarget: 5-HT2A receptor (Homo sapiens)
experimentalReadout: Emax
resultUnits: %
experimentalResult: 81.8

Input: Emax lookup needed for CN(C)CCc1c[nH]c2ccc(F)c(F)c12 , thanks.
Output: 70

Input: Now consider Cc1cc(O)c2c(CCN(C)C)c[nH]c2c1 and answer again.
Output: 67.8

Input: Please answer likewise for CN(C)CCc1c[nH]c2c(F)cc(F)cc12
Output: 48

Input: Then this compound: CC(C)N(C)CCc1c[nH]c2ccc3ocnc3c12
Output: 83.8

Input: Next up: CCCN(C)CCc1c[nH]c2ccc(C)c(O)c12
Output: 78.8

Input: Same for COc1cc(F)cc2[nH]cc(CCN(C)C)c12
Output: 87.2

Input: Can you check CCCN(C)CCc1c[nH]c2c(C)cc(OC)cc12 next?
Output: 58
